Cited source: PubChem BioAssay

# assay.protocol: forskolin-driven CRE-LacZ activity in PC12 – cell-based, CRE-LacZ reporter, forskolin-stimulated, primary screen (AID 1146);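 note: PC12 cells with 6xCRE LacZ reporter stimulated by forskolin 10 µM; beta-galactosidase reporter signal reflecting CREB driven transcription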
# recorded.conditions: luminescence, 4.5 h, higher = more signal, called active from +8 up or from −8 down
Kindly state z-score for each of the entries shown.
Answers are plain numbers.

compound | z-score
CC(C)CCC[C@@H](C)[C@H]1CC[C@@]2(C)C3=C(CC[C@]12C)[C@@]1(C)CC[C@H](OC(=O)c2ccc(N)cc2)C(C)(C)C1CC3 (some centres undefined) | -0.391
CCOC(=O)C1=CC[C@@H](c2ccc(N(CC)CC)cc2)N(S(=O)(=O)c2ccc(C)cc2)[C@H]1c1ccc([N+](=O)[O-])cc1 | 0.619
C=CCN1C(=O)[C@@]2(O[C@@H](CCn3cc([C@H](O)c4ccccc4)nn3)[C@H]([Si](C)(C)c3ccc(OC)cc3)[C@H]2C)c2cc(NC(=O)c3ccc(OC)cc3)ccc21 | 0.35
C=C[C@H](C)[C@H](OC(=O)Nc1ccc(SC)cc1)c1ccc(O)c2ccccc12 | 4.5
COCCOC(=O)N1C(=O)[C@@]2(c3cc(C#CCNC(N)=O)ccc31)[C@H](C(N)=O)[C@H]1C(=O)O[C@H](c3ccccc3)[C@H](c3ccccc3)N1[C@@H]2c1ccc(OCCO)cc1 | -0.0727
COc1ccc([Si](C)(C)[C@@H]2[C@@H](CC(=O)N(CCO)Cc3ccccc3)O[C@]3(C(=O)N(C)c4c(Br)cc(C)cc43)[C@H]2C)cc1 | 0.429
COC(=O)C(CC#Cc1ccc2c(c1)[C@]1(C(=O)N2)[C@H](c2ccc(O)cc2)N2[C@H](c3ccccc3)[C@H](c3ccccc3)OC(=O)[C@H]2[C@@H]1C(=O)O)C(=O)OC | 0.416
O=C1O[C@@H](c2ccccc2)[C@@H](c2ccccc2)N2[C@@H](c3ccc(O)cc3)[C@]3(C(=O)Nc4ccc(C#CC5(O)CCCCCC5)cc43)[C@@H](C(=O)N3CCN(c4ncccn4)CC3)[C@H]12 | 0.204
O=C(O)[C@]1(CCS(=O)(=O)c2ccccc2)N=C(c2ccc(OCCCO)cc2)O[C@@H]1c1ccccc1 | -0.534
CC(C)C[C@@H]1NC(=O)[C@@H]2C[C@H](C(=O)NCc3ccc(F)cc3)[C@H](c3ccc(O)cc3)N2C1=O | -0.101

Field: z-score. Fill in for each record below.
1. O=C1C2C=CC(C(O)c3cccc4ccccc34)N(Nc3ccccc3)C2C(=O)N1c1ccccc1 (centres undefined)
2. CC(C)NC(=O)[C@@]1(Cc2ccccc2I)c2ccccc2C(=O)N(Cc2ccccc2C(F)(F)F)[C@H]1c1ccc(CO)cc1
3. O=C1C[C@@](C(=O)NCc2ccccc2)(c2ccc([N+](=O)[O-])cc2)[C@@H](c2ccc(CO)cc2I)N1C1CCCCC1
4. C=CCNC(=O)[C@H]1[C@@H]2C(=O)O[C@@H](c3ccccc3)[C@@H](c3ccccc3)N2[C@@H](c2ccc(O)cc2)[C@]12C(=O)N(C(=O)OCCOC)c1ccc(C#CC3(O)CCCCCC3)cc12
5. COCCOC(=O)N1C(=O)[C@@]2(c3cc(C#CC4(O)CCCCCC4)ccc31)[C@H](C(=O)NC[C@H](O)c1ccccc1)[C@H]1C(=O)O[C@H](c3ccccc3)[C@H](c3ccccc3)N1[C@@H]2c1ccc(OCCO)cc1
6. CC(C)C(CO)N1C(=O)[C@@H]2[C@H]3C(=O)OCC=C[C@H]3OC23C=CCN(Cn2nnc4ccccc42)C(=O)[C@@H]13 (some centres undefined)
7. C=CCC(OC(C)=O)[C@@H]1[C@@H](N(Cc2ccc(-c3ccccc3)cc2)C(=O)Cc2ccc(OC)cc2)c2cc(OCCCO)ccc2N1C(=O)c1ccc(-c2ccccc2)cc1 (some centres undefined)
8. O=C1NC(=O)C2C1C=CC(C(O)c1ccc(-c3ccccc3)s1)N2Nc1ccccn1 (centres undefined)

-- reply
1. -0.637
2. -0.151
3. 0.583
4. -0.804
5. 0.0759
6. -0.0021
7. -0.522
8. 0.0978

-- ask Dear colleague, I am looking for the recorded z-score of the following compound: O=C(CS)NCCCCCNC(=O)[C@@H]1C[C@@H]2C(=O)N3CCC[C@H]3C(=O)N2[C@@H]1c1ccc(O)cc1
-- reply -0.862
